- testTarget: sodium ion channel of Trpm5 bitter receptor (Mus musculus)
- Construct: Put the removed tongue in a 2 ml EP tube, add 1-1.5 ml of 0.25% trypsin solution; from tissue; host or cells: cells dissociated with trypsin from mouse tongue
- Sequence (Q9JJH7 whole entry): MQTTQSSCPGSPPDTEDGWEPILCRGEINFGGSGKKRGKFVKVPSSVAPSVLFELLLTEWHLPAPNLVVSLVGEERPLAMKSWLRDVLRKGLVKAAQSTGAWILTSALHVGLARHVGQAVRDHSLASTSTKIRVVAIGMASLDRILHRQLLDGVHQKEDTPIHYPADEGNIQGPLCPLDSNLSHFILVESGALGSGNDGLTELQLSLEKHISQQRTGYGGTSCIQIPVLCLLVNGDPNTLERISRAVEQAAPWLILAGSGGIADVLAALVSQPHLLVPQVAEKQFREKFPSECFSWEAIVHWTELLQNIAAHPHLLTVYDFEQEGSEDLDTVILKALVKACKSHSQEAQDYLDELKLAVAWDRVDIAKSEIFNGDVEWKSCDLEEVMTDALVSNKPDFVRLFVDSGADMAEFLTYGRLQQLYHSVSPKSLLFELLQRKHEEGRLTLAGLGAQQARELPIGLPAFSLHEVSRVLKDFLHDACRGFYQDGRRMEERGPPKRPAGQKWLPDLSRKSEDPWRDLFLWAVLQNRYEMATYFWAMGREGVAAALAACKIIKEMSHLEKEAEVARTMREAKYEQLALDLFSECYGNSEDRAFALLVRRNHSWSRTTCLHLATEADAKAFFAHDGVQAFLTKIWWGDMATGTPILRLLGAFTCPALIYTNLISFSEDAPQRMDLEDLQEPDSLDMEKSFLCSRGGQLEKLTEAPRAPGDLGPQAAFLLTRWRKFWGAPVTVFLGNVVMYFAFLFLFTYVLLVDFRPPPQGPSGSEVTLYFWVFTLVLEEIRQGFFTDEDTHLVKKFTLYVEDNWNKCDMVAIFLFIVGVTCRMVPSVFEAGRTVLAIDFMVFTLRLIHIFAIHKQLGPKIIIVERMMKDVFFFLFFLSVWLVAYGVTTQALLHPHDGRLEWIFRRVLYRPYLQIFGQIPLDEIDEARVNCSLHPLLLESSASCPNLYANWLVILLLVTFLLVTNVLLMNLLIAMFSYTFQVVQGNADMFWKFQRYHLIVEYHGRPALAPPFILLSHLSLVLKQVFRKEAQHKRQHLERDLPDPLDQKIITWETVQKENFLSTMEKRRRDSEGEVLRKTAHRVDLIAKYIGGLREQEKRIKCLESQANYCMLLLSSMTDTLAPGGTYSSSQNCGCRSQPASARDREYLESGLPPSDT
- testProtocol: Immunofluorescence experiment of sodium ion channels in mouse tongue cells stimulated with bitter agent
- Assay type: cell-based, mice
- experimentalSetup: Addition of drugs
Please assign N whenever average value of fluorescence brightness is at or above 30, and Y whenever it is below.

>>> labelvalue("O=CC=Cc1ccccc1")
"N"
>>> labelvalue("COc1cc(C(=O)O)ccc1O [Vanillic acid, 3-methoxy-4-hydroxybenzoic acid]")
"Y"
>>> labelvalue("CC1CCC(C(C)C)C(=O)C1 (stereo not shown)")
"Y"
>>> labelvalue("CC1CCC(C(C)C)C(O)C1 (stereo not shown)")
"Y"
>>> labelvalue("COc1ccc(CCN(C)CCCC(C#N)(c2ccc(OC)c(OC)c2)C(C)C)cc1OC (stereo not shown) [Verapamil, reference compound]")
"Y"

Regarding C=CC(C)(O)CCC=C(C)C (stereo not shown) , kindly confirm whether its average value of fluorescence brightness is beneath 30.
Y

Regarding NCCCC(=O)O , kindly confirm whether its average value of fluorescence brightness is beneath 30.
Y

Regarding O=P(c1ccccc1)(c1ccccc1)c1ccccc1 [Triphenylphosphine oxide, reference compound] , kindly confirm whether its average value of fluorescence brightness is beneath 30.
N
